I'd appreciate it if you could supply log2 ratio of Biotin-Ahx-Ub-VS probe labelling values for the items below.
molecular target: UniProt O00507; experiment: log2 ratio of Biotin-Ahx-Ub-VS probe labelling (fragment/DMSO); higher = less target engagement (more negative = stronger competition), active = hit call of the paper (q ≤ 0.05, log2 ratio ≤ -1); conditions: compound concentration: 200 uM; treatment time: 3 h
Sequence (O00507 whole entry, the tested form may be a part): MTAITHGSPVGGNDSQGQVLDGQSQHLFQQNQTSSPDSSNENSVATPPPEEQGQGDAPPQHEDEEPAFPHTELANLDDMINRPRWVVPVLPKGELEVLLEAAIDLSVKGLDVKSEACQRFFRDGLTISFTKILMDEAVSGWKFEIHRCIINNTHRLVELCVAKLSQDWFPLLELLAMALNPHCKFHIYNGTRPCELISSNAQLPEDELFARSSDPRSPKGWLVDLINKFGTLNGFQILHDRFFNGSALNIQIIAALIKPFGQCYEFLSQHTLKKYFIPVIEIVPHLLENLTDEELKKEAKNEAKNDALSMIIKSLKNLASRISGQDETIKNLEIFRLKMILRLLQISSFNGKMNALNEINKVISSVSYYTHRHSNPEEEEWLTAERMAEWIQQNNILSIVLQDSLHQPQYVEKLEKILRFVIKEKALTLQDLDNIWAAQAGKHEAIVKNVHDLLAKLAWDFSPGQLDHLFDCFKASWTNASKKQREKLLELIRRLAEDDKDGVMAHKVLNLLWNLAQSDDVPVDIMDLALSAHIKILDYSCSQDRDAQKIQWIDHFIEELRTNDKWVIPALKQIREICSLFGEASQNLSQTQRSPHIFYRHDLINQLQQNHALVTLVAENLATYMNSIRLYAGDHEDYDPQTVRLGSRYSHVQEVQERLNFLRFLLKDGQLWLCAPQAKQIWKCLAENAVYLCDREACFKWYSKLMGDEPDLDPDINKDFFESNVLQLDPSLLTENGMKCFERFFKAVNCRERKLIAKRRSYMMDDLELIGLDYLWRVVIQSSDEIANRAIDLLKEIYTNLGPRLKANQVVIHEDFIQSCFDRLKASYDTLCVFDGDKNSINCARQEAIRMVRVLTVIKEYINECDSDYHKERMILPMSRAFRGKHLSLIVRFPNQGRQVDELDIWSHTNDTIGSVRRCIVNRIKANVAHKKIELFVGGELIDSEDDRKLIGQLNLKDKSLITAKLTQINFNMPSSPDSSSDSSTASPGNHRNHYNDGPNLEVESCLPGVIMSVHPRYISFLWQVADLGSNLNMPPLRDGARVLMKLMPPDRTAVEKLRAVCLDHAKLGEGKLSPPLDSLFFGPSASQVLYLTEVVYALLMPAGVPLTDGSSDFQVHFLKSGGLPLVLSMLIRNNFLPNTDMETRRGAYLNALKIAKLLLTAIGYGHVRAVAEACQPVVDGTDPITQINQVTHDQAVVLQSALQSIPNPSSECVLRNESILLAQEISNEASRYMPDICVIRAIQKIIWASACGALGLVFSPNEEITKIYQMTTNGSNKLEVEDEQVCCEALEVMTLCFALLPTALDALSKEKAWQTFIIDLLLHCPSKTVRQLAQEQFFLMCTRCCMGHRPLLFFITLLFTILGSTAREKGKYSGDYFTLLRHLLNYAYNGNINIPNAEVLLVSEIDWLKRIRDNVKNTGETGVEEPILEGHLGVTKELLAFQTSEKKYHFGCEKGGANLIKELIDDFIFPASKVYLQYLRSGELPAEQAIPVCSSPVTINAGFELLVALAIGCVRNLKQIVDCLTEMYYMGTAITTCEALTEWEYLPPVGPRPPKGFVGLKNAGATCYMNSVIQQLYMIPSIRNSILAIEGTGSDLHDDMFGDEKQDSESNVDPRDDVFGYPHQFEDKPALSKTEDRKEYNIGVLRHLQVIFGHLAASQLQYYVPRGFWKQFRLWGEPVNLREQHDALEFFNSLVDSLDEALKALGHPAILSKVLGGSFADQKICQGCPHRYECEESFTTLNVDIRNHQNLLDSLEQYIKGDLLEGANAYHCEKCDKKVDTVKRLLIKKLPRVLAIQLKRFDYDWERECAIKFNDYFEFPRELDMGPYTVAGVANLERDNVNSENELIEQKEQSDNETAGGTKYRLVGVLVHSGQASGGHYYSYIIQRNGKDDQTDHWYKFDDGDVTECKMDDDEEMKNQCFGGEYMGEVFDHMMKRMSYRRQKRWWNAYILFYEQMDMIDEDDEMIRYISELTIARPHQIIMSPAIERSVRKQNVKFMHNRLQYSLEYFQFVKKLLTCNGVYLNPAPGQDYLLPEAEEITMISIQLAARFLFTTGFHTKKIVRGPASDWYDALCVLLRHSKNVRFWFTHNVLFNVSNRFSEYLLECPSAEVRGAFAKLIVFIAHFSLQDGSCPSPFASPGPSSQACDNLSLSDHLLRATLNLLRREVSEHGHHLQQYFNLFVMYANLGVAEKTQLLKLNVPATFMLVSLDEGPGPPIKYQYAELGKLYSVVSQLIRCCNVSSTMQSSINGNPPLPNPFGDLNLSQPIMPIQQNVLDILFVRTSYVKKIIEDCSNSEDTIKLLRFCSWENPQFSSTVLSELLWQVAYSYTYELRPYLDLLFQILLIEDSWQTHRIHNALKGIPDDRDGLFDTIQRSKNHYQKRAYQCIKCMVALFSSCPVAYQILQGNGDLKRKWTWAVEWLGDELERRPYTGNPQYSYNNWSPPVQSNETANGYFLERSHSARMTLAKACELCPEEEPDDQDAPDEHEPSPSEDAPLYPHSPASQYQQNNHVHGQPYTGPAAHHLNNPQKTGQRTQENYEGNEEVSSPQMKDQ
No unit in the answer, only the number.

Kindly note the recorded log2 ratio of Biotin-Ahx-Ub-VS probe labelling for O=C(CCl)Nc1cc(Cl)ccc1-n1cncn1 , which is -1.06

Entry O=C(CCl)N1CCc2[nH]c3ccccc3c2C1 , log2 ratio of Biotin-Ahx-Ub-VS probe labelling reported as -1.27

Consider CN(C(=O)CCl)c1nc2ccccc2s1 . Its measured log2 ratio of Biotin-Ahx-Ub-VS probe labelling is 0.257

log2 ratio of Biotin-Ahx-Ub-VS probe labelling reading for NC(=O)C1CCCN(C(=O)CCl)C1 (centres undefined) : -0.185

The compound Cc1ccc(N(CCC#N)C(=O)CCl)cc1C showed log2 ratio of Biotin-Ahx-Ub-VS probe labelling equal to -0.369

GET /value?item= CC(C)n1nccc1NC(=O)CCl &field=log2 ratio of Biotin-Ahx-Ub-VS probe labelling returns -0.0553

Value of log2 ratio of Biotin-Ahx-Ub-VS probe labelling reported for the compound O=C(CCl)N1CCOCC1C1CC1 (centres undefined) is -0.0511

Record summary for CC(O)CC1CCN(C(=O)CCl)CC1 (centres undefined) : reported log2 ratio of Biotin-Ahx-Ub-VS probe labelling = 0.0435

The reported log2 ratio of Biotin-Ahx-Ub-VS probe labelling of the compound O=C(CCl)Nc1cccc(C(=O)N2CCSCC2)c1 was -0.587

Entry Cl.O=C(CCl)N1CCC(Cc2nccs2)C1 (centres undefined) , log2 ratio of Biotin-Ahx-Ub-VS probe labelling reported as -0.185

The measured log2 ratio of Biotin-Ahx-Ub-VS probe labelling associated with CNC(=O)C1(NC(=O)CCl)CCCCC1 reads 0.215

# log2 ratio of Biotin-Ahx-Ub-VS probe labelling of O=C(CCl)NC1CCCCNC1=O (centres undefined) = -0.323

The compound listed as Cl.O=C(CCl)NC1(c2ncccn2)CCC1 has a reported log2 ratio of Biotin-Ahx-Ub-VS probe labelling of -0.0196

Lab note: measured log2 ratio of Biotin-Ahx-Ub-VS probe labelling of Cc1cccn2cc(CCNC(=O)CCl)nc12.Cl was -0.143
